target: T1, human chemokine (C-C motif) receptor 8 (CCR8) (human, UniProt P51685 1-355); test: flow cytometry blocking, PBMC CCR8+ CD4+ cells; competitor PE-AB5 (its MFI is read)
T1 construct: On human peripheral blood lymphocytes / PBMC (native) or on human CCR8 GFP-transfected Ba/F3 cells; also called hCCR8; human CCR8
T1 sequence (P51685 whole entry): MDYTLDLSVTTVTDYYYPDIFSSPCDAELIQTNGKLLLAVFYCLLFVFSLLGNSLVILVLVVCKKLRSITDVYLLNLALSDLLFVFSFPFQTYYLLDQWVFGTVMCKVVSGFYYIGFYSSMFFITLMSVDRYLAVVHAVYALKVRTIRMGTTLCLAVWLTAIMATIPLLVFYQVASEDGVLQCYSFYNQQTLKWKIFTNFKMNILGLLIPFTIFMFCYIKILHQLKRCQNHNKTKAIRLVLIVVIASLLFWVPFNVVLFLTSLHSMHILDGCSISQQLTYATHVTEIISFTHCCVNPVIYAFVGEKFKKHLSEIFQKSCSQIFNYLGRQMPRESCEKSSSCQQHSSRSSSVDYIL
Property: % Blocking; scope: individual binders
Quick note: give the figure in %, leave out the unit.

- Binder: "AB14 (antibody, V domains shown, Hybridoma monoclonal; also called antibody 14; clone 14) VH: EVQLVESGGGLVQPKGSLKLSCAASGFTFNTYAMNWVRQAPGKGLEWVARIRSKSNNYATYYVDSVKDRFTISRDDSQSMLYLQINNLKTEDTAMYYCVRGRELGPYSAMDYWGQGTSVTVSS VL: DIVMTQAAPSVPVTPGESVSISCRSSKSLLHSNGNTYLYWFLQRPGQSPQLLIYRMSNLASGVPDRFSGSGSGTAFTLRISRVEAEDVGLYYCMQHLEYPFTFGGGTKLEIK"
  % Blocking, %: -29.2
- Binder: "AB3 (antibody, V domains shown, Hybridoma monoclonal; also called antibody 3; clone 3) VH: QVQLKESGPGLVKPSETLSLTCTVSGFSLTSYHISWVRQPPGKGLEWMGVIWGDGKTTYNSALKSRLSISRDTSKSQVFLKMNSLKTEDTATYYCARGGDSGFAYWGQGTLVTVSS VL: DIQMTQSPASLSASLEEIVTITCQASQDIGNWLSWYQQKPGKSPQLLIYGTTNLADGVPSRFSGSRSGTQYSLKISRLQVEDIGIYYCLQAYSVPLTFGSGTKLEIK"
  % Blocking, %: 38.8
- Binder: "AB1 (antibody, V domains shown, Hybridoma monoclonal (mice or rats immunised); Used purified and PE-conjugated; also called antibody 1; clone 1) VH: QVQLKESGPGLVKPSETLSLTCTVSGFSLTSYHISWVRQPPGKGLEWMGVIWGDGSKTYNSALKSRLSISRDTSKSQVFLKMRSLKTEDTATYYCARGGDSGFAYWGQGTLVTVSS VL: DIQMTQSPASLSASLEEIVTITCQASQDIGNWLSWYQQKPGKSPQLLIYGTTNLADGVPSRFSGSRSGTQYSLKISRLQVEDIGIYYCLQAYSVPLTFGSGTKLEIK"
  % Blocking, %: 25.7
- Binder: "AB4 (antibody, V domains shown, Hybridoma monoclonal; also called antibody 4; clone 4) VH: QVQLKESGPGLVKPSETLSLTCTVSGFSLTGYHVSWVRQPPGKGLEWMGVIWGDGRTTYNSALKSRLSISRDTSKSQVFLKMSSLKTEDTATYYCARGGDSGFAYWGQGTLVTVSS VL: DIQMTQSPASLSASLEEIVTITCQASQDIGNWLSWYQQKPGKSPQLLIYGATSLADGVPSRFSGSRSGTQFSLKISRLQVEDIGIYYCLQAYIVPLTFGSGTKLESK"
  % Blocking, %: 45.1
- Binder: "AB13 (antibody, V domains shown, Hybridoma monoclonal; also called antibody 13; clone 13) VH: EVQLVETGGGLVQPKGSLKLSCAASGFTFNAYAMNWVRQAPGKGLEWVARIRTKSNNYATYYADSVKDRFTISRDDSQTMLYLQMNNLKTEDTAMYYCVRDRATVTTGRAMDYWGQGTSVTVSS VL: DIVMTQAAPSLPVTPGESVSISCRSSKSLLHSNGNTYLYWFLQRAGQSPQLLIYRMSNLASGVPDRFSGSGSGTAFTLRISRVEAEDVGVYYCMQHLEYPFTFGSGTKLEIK"
  % Blocking, %: -35.7
- Binder: "AB2 (antibody, V domains shown, Hybridoma monoclonal; also called antibody 2; clone 2) VH: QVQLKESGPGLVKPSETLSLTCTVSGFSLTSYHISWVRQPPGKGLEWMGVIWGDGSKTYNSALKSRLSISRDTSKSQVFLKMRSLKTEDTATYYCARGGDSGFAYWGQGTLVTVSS VL: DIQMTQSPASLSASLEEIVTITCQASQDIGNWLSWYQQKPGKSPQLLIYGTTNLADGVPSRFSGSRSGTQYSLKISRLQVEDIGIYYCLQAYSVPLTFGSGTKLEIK"
  % Blocking, %: 36.7
- Binder: "AB11 (antibody, V domains shown, Hybridoma monoclonal; also called antibody 11; clone 11) VH: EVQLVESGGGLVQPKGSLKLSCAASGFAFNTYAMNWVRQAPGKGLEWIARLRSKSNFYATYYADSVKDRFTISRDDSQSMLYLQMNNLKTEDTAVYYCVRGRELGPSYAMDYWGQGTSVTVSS VL: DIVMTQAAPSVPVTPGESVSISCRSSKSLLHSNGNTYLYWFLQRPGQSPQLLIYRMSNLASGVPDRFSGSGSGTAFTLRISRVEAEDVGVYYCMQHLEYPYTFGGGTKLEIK"
  % Blocking, %: -36

Let's switch to this binder now.
In: What value of % Blocking has been recorded for this entry: AB15 (antibody, V domains shown, Hybridoma monoclonal; also called antibody 15; clone 15) VH: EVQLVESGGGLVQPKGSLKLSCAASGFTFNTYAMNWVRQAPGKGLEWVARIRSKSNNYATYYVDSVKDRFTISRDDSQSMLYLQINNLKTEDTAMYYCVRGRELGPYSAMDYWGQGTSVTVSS VL: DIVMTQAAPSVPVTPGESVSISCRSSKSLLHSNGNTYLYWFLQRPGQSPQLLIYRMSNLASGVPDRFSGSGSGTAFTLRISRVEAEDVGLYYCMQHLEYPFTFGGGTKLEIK
Out: -29.4
